The next entries give measured IC50 for CDK2/Cyclin A1 (Homo sapiens).
Give the number first and the unit second.

Item: Fc1cc2[nH]ncc2c2c3c(c(-c4c[nH]nc4C(F)(F)F)nc12)C1CCC3C1 (stereo unspecified) | System: CDK2/Cyclin A1 (Homo sapiens) | IC50: 49 nM

Item: FC(F)(F)c1n[nH]cc1-c1nc2c(N3CCCCC3)cc3[nH]ncc3c2c2c1CCCC2 | System: CDK2/Cyclin A1 (Homo sapiens) | IC50: 5740 nM

###

Test system: MV4-11
Experiment: cells
Details: Homo sapiens, MV4-11, 72 h
Description: Antiproliferative activity against human MV4-11 cells assessed as cell death measured after 72 hrs by resazurin dye based assay
quantityName: IC50 (nM)
Output spec: scalar in nM, unitless text.

Entry under test: Cc1n[nH]cc1-c1nc2ccc3[nH]nc(C)c3c2c2c1CCCC2 . Its IC50 was 687

Entry under test: CC(C)c1nn(C)cc1-c1nc2ccc3[nH]ncc3c2c2c1CCCC2 . Its IC50 was 1400

Entry under test: Fc1n[nH]c2ccc3nc(-c4c[nH]nc4C(F)(F)F)c4c(c3c12)CCCC4 . Its IC50 was 660

Entry under test: Cc1noc(C)c1-c1nc2ccc3[nH]ncc3c2c2c1CCCC2 . Its IC50 was 880

###

Target: Receptor-type tyrosine-protein kinase FLT3 (Homo sapiens, UniProt P36888, ITD)
Sequence (P36888 whole entry, looked up, change not shown): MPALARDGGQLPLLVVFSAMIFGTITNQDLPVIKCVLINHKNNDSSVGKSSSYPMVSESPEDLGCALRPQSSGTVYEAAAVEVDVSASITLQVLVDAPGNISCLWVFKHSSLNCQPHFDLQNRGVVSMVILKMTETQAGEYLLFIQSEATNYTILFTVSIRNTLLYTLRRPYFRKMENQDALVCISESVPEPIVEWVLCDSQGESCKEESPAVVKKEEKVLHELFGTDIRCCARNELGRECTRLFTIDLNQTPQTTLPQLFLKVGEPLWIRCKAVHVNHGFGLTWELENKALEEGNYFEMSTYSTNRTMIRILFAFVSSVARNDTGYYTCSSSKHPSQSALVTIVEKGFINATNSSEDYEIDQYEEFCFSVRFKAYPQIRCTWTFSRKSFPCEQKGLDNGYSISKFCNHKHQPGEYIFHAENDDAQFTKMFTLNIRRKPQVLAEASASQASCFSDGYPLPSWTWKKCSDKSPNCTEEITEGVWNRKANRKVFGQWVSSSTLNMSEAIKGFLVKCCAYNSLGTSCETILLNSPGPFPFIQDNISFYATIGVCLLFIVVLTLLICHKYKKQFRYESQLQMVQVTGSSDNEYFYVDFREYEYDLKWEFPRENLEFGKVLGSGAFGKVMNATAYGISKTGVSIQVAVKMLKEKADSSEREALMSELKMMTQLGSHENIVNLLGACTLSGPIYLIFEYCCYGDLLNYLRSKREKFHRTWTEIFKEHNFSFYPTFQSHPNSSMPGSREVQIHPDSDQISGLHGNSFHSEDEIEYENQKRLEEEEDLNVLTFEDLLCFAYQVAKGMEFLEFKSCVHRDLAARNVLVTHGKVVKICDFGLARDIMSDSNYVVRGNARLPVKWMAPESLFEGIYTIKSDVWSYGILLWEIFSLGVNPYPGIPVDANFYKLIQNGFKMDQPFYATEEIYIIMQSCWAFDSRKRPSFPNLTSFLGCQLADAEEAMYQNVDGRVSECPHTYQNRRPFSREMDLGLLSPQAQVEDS
pIC50: −log10 of the molar value.
Classification field. Basis: pIC50. Definitions: bucket A: < 6; bucket B: ≥ 6 and < 7; bucket C: ≥ 7

Use the examples below as a reference point.
Cc1n[nH]c2ccc3nc(-c4c[nH]nc4C(F)(F)F)c4c(c3c12)CCC(N)C4 (stereo not drawn); bucket B
FC(F)(F)c1n[nH]cc1-c1nc2ccc3[nH]nc(Br)c3c2c2c1CCCC2; bucket C
Cc1n[nH]cc1-c1nc2ccc3[nH]nc(C)c3c2c2c1CCCC2; bucket C
FC(F)(F)c1n[nH]cc1-c1cc(C2CC2)c2c(ccc3[nH]ncc32)n1; bucket B
CN1CCN(CC#Cc2n[nH]c3ccc4nc(-c5c[nH]nc5C(F)(F)F)c5c(c4c23)CCCC5)CC1; bucket C

# evaluate next
Query: Quick check: band for FC(F)(F)c1n[nH]cc1-c1cc(-c2ccncc2)c2c(ccc3[nH]ncc32)n1
Result: bucket A

###

Biological target: CDK2/Cyclin A1 (Homo sapiens)
Each entry below carries its recorded pIC50.
The meaning of pIC50 here: minus log10 of the concentration in molar units.

Observe how each entry below is paired with its result.
FC(F)(F)c1n[nH]cc1-c1cc(-c2ccncc2)c2c(ccc3[nH]ncc32)n1; 6.08
NCC1CCc2c(c(-c3c[nH]nc3C(F)(F)F)nc3c(F)cc4[nH]ncc4c23)C1 (centres undefined); 7.24
NC1CCc2c(c(-c3c[nH]nc3C(F)(F)F)nc3ccc4[nH]ncc4c23)C1 (centres undefined); 5.22

Entry under test: Fc1cc2[nH]ncc2c2c3c(c(-c4cn[nH]c4)nc12)CCCC3 . Its pIC50 was 7.41

###

The next entries give measured pIC50 for Receptor-type tyrosine-protein kinase FLT3 (Homo sapiens, UniProt P36888, ITD).
The meaning of pIC50 here: minus log10 of the concentration in molar units.

Observe how each entry below is paired with its result.
FC(F)(F)c1n[nH]cc1-c1nc2ccc3[nH]nc(Cl)c3c2c2c1CCCCC2; 7.47
FC(F)(F)c1n[nH]cc1-c1nc2ccc3[nH]nc(Cl)c3c2c2c1CCCC2; 7.39
FC(F)(F)c1n[nH]cc1-c1nc2c(N3CCCCC3)cc3[nH]ncc3c2c2c1CCCC2; 5.90
[O-][S+]1CCc2c(c(-c3c[nH]nc3C(F)(F)F)nc3ccc4[nH]ncc4c23)C1 (configuration not stated); 7.77

As a next step, examine the compound that follows.
Item: Cn1ncc2c3c4c(c(-c5c[nH]nc5C(F)(F)F)nc3ccc21)CCCC4 | System: Receptor-type tyrosine-protein kinase FLT3 (Homo sapiens, UniProt P36888, ITD) | pIC50: 5.77
